procedure.text: Plasma pharmacokinetics of GSK3532795, part C
Format: in vivo, human
recorded.conditions: human, plasma, oral, 40 mg
value.type: AUC
A complete answer gives the number and then names the unit.

Which measured AUC value corresponds to C=C(C)[C@@H]1CC[C@]2(NCCN3CCS(=O)(=O)CC3)CC[C@]3(C)[C@H](CC[C@@H]4[C@@]5(C)CC=C(c6ccc(C(=O)O)cc6)C(C)(C)[C@@H]5CC[C@]43C)[C@@H]12 [GSK3532795] ?
25600 ng·h/mL

* * *

procedure.text: Plasma pharmacokinetics of GSK3532795, part B
Type: in vivo, human
recorded.conditions: human, plasma, oral, Tmax, median (min–max), Part B, fed, 80 mg + ATV 400 mg QD
value.type: Tmax (h)
Give bare numbers, in h.

Which measured Tmax value corresponds to C=C(C)[C@@H]1CC[C@]2(NCCN3CCS(=O)(=O)CC3)CC[C@]3(C)[C@H](CC[C@@H]4[C@@]5(C)CC=C(c6ccc(C(=O)O)cc6)C(C)(C)[C@@H]5CC[C@]43C)[C@@H]12 ?
4.5

* * *

procedure.text: Plasma pharmacokinetics of GSK3532795, part A
Format: in vivo
recorded.conditions: human, oral, 20 mg
value.type: Tmax (h)
Answers are plain numbers, in h.

Which measured Tmax value corresponds to C=C(C)[C@@H]1CC[C@]2(NCCN3CCS(=O)(=O)CC3)CC[C@]3(C)[C@H](CC[C@@H]4[C@@]5(C)CC=C(c6ccc(C(=O)O)cc6)C(C)(C)[C@@H]5CC[C@]43C)[C@@H]12 ?
4

* * *

procedure.text: Plasma pharmacokinetics of GSK3532795, part A
Type: in vivo
recorded.conditions: human, oral, 40 mg
value.type: Tmax
A complete answer gives the number and then names the unit.

Which measured Tmax value corresponds to C=C(C)[C@@H]1CC[C@]2(NCCN3CCS(=O)(=O)CC3)CC[C@]3(C)[C@H](CC[C@@H]4[C@@]5(C)CC=C(c6ccc(C(=O)O)cc6)C(C)(C)[C@@H]5CC[C@]43C)[C@@H]12 [GSK3532795] ?
3 h

* * *

procedure.text: Plasma pharmacokinetics of GSK3532795, part A
Format: in vivo
recorded.conditions: human, oral
value.type: Tmax (h)
Answers are plain numbers, in h.

Which measured Tmax value corresponds to C=C(C)[C@@H]1CC[C@]2(NCCN3CCS(=O)(=O)CC3)CC[C@]3(C)[C@H](CC[C@@H]4[C@@]5(C)CC=C(c6ccc(C(=O)O)cc6)C(C)(C)[C@@H]5CC[C@]43C)[C@@H]12 [GSK3532795] ?
3

* * *

procedure.text: Plasma pharmacokinetics of GSK3532795, part A
Format: in vivo
recorded.conditions: human, oral, 40 mg
value.type: concentration at 24 h (ng/mL)
Numbers only, in ng/mL.

Which measured concentration at 24 h value corresponds to C=C(C)[C@@H]1CC[C@]2(NCCN3CCS(=O)(=O)CC3)CC[C@]3(C)[C@H](CC[C@@H]4[C@@]5(C)CC=C(c6ccc(C(=O)O)cc6)C(C)(C)[C@@H]5CC[C@]43C)[C@@H]12 ?
713

* * *

procedure.text: Plasma pharmacokinetics of GSK3532795, part A
Assay type: in vivo
recorded.conditions: human, oral, 10 mg
value.type: Tmax (h)
Answers are plain numbers, in h.

Which measured Tmax value corresponds to C=C(C)[C@@H]1CC[C@]2(NCCN3CCS(=O)(=O)CC3)CC[C@]3(C)[C@H](CC[C@@H]4[C@@]5(C)CC=C(c6ccc(C(=O)O)cc6)C(C)(C)[C@@H]5CC[C@]43C)[C@@H]12 ?
3
